Values were extracted from PubChem BioAssay (EPA / NIEHS).

procedure.text: ATG_MRE_CIS: Attagene CIS-FACTORIAL HepG2 Assay for human Metal Responsive Element (MRE) (AID 2282954)
stated.conditions: HepG2 MRE cis-reporter transcription, Attagene multiplex; actives raise or lower the signal
Active and inactive are the calls of the source. The calls were made as follows: active = hit-call score of the fitted dose curve at least 0.9, where 1 is the maximum; inactive = score below 0.9.
Select the matching outcome among T (active), F (inactive)

compound: ClCC(Cl)Cl
discrete.label: F
--
compound: CC=Cc1ccc2c(c1)OCO2
discrete.label: F

Qu. Check the results log: what was the call for CC(O)CN(CC(C)O)CC(C)O (stereo unspecified) ?
Ans. F

* * *

system: Cellular tumor antigen p53 (Homo sapiens)
procedure.text: TOX21_p53_BLA_p4_ratio: Tox21 HCT-116 p53 Agonism Beta-lactamase Assay, Ratio, Phase 4 (AID 2283601)
Results filed as inconclusive are left out. The source made the active and inactive calls. The calls were made as follows: active = hit-call score of the fitted dose curve at least 0.9, where 1 is the maximum; inconclusive = response in the unintended direction; inactive = score below 0.9.
// one of TRUE for active, FALSE for inactive, no free text

Solved cases (3 shown):
compound: O=C(Cl)c1ccccc1
discrete.label: FALSE

compound: CC(Cl)CCl (stereo not given)
discrete.label: FALSE

compound: CCCSC(=O)Cl
discrete.label: FALSE

Qu. Lab log entry: C=CCN1CC[C@]23CCCC[C@H]2[C@H]1Cc1ccc(O)cc13 — outcome as called in the assay?
Ans. FALSE

* * *

procedure.text: ATG_NFI_CIS: Attagene CIS-FACTORIAL HepG2 Assay for human Nuclear Factor I (NFI) (AID 2282989)
stated.conditions: HepG2 cis-regulatory reporter, NFI response element transcription; actives raise or lower the signal
Calls of active or inactive are those of the source. Rule for the calls: active = hit-call score of the fitted dose curve at least 0.9, where 1 is the maximum; inactive = score below 0.9.
measurement.kind: AC50

Solved entries (count: 5):
smiles.record: CC(C)(O)C#N
AC50: inactive
//
smiles.record: ClC1=C(Cl)[C@]2(Cl)[C@@H]3[C@@H](Cl)[C@H](Cl)C[C@@H]3[C@@]1(Cl)C2(Cl)Cl
AC50: inactive
//
smiles.record: O=C(CCN1CC1)OCC(CO)(COC(=O)CCN1CC1)COC(=O)CCN1CC1
AC50: inactive
//
smiles.record: O=C1C=CC(=O)C=C1
AC50: inactive
//
smiles.record: COc1ncc(F)c2nc(S(=O)(=O)Nc3c(F)cccc3F)nn12
AC50: inactive

Qu. // AC50 lookup, key: O=P(O)(Oc1ccccc1)Oc1ccccc1
Ans. inactive

* * *

procedure.text: TOX21_p53_BLA_p5_viability: Viability Assessment in the Tox21 HCT-116 p53 Agonism Beta-lactamase Assay, Phase 5 (AID 2283600)
Text: TOX21_p53_BLA_p5 is a cell-based, single-readout assay that uses HCT116, a human intestinal cell line, […] in a 1536-well plate.TOX21_p53_BLA_p5_viability is an assay readout measuring cellular ATP content and detected with CellTiter-Glo Luciferase-coupled ATP quantitation.TOX21_p53_BLA_p5_viability used a type of viability reporter where loss-of-signal activity can be used to understand changes in the cell viability. […]
Records with an inconclusive call do not appear. Activity calls are given as the source filed them. Rule for the calls: active = hit-call score of the fitted dose curve at least 0.9, where 1 is the maximum; inconclusive = response in the unintended direction; inactive = score below 0.9.
// classify into active, inactive

Qu. Per the records of this test, what outcome belongs to C[C@@H]1[C@@H]2Cc3ccc(O)cc3[C@@]1(C)CCN2CC1CC1 ?
Ans. inactive

Qu. Hi team, can someone confirm the assay call for C=CC(=O)OCCO ?
Ans. inactive

Qu. Could you kindly confirm the outcome this assay logged for Oc1ccc(Cl)c(Cl)c1Cl ?
Ans. inactive

Qu. Assay outcome for O=[N+]([O-])C=Cc1ccccc1 : what was it?
Ans. inactive

Qu. What did this assay record as the result for O=[N+]([O-])CCO ?
Ans. inactive

Qu. Tell me the recorded outcome of this test for O=Cc1ccc(Cl)cc1Cl .
Ans. inactive

Qu. Any idea what this test logged for NC(=O)c1cc([N+](=O)[O-])cc([N+](=O)[O-])c1 ?
Ans. inactive

Qu. Called result for Cn1cc[n+](C)c1 (tested in a mixture with another compound)
Ans. inactive

Qu. Test call, this compound: CCC[CH2][Sn]([CH2]CCC)([CH2]CCC)[O][Sn]([CH2]CCC)([CH2]CCC)[CH2]CCC
Ans. active

Qu. Which result was noted for this compound in the test: NCC(O)c1ccc(O)cc1 (stereo unspecified)
Ans. inactive

Qu. # lookup: test call for CCCCc1c(C)nc(NCC)[nH]c1=O
Ans. inactive

Qu. How was N#CC(C#N)=C(C#N)C#N classified in this test?
Ans. inactive

Qu. Hi, do you know how CCCCNP(N)(N)=S came out in this test?
Ans. inactive

Qu. Recorded call for COc1ccc(CO)cc1 ?
Ans. inactive

Qu. Can you look up the reported call for O=C(Cl)C(Cl)Cl for me?
Ans. inactive

Qu. Give the logged outcome of this assay for the following compound: CN1CCN(C(=O)O[C@H]2c3nccnc3C(=O)N2c2ccc(Cl)cn2)CC1
Ans. inactive

Qu. For CC(C)(C)NCC(O)c1cc(Cl)c(N)c(C(F)(F)F)c1 (stereo unspecified) , what call appears in the results of this test?
Ans. inactive

Qu. Recorded test outcome, item NCCCNCCCN
Ans. inactive

Qu. What classification did c1cc2c(c(NC3=NCCN3)c1)CCCC2 end up with in this test?
Ans. inactive

Qu. Recorded call for CSCCCN=C=S ?
Ans. inactive

Qu. // return assay outcome for Brc1c(Br)c(Br)c(Br)c(Br)c1Br
Ans. inactive

Qu. What outcome does the record of this test show for N#CC(C#N)=Cc1ccc(O)c(O)c1 ?
Ans. inactive

* * *

system: human Caspase 2 (CASP2), CASP2 (gene 835)
procedure.text: NVS_ENZ_hCASP2: NovaScreen (NVS) Enzymatic Assay for human Caspase 2 (CASP2) (AID 2283135)
Results filed as inconclusive are left out. Calls of active or inactive are those of the source. How the source made its calls: active means hit-call score of the fitted dose curve at least 0.9, where 1 is the maximum; inconclusive means response in the unintended direction; inactive means score below 0.9.
Outcome (select one): true (active), false (inactive)

Before answering, review these 5 worked examples.
molecule: c1ccc2c(c1)Cc1ccccc1-2
system: human Caspase 2 (CASP2), CASP2 (gene 835)
discrete.label: false
--
molecule: CCCCOC(=O)c1ccc(O)cc1
system: human Caspase 2 (CASP2), CASP2 (gene 835)
discrete.label: false
--
molecule: Oc1cc2ccccc2c2ccccc12
system: human Caspase 2 (CASP2), CASP2 (gene 835)
discrete.label: true
--
molecule: Cc1oc(-c2ccccc2)nc1CCOc1cccc2c1ccn2CCC(=O)O
system: human Caspase 2 (CASP2), CASP2 (gene 835)
discrete.label: false
--
molecule: NC(=O)N(O)[C@@H]1C=C[C@H](Oc2cccc(Oc3ccc(F)cc3)c2)C1
system: human Caspase 2 (CASP2), CASP2 (gene 835)
discrete.label: false

Qu. Dear colleague, could you share the recorded outcome for O=S(=O)(O)c1ccc(N=Nc2c(O)ccc3cc(S(=O)(=O)O)ccc23)cc1 when you have a moment?
Ans. true

Qu. Hi team, can someone confirm the assay call for COc1cc(-c2nc(NC(=O)c3cc4cc(C)cc(C)c4n3CC(=O)O)sc2CCC2CCCCC2)c(OC)cc1Cl ?
Ans. true

Qu. State the result this test recorded for Cc1nccn1-c1ccc(Sc2cccc(C3(C(N)=O)CCOCC3)c2)cc1 .
Ans. false

Qu. Hey, what did the test say about O=C1CCC(N2C(=O)c3ccccc3C2=O)C(=O)N1 (stereo unspecified) ?
Ans. false

Qu. Write down the call the test reported for this molecule. Item: COc1cc(S(=O)(=O)O)c(C)cc1N=Nc1c(O)ccc2cc(S(=O)(=O)O)ccc12
Ans. true

* * *

procedure.text: ATG_ERE_CIS: Attagene CIS-FACTORIAL HepG2 Assay for Estrogen Response Element (ERE) (AID 2282940)
stated.conditions: HepG2 ERE cis-reporter, Attagene RNA transcript; actives raise or lower the signal
The source made the active and inactive calls. The calls were made as follows: active = hit-call score of the fitted dose curve at least 0.9, where 1 is the maximum; inactive = score below 0.9.
measurement.kind: AC50

Check out these entries, answers already filled in.
compound: CSc1nc(N=[N+]=[N-])nc(NC(C)C)n1
AC50: inactive
//
compound: O=C(O)C(Br)Br
AC50: inactive
//
compound: Clc1ccc(-c2ccccc2)cc1
AC50: 55.7 µM (active)
//
compound: C=Cc1cccc(CCl)c1
AC50: inactive
//
compound: O=CNC(N1CCN(C(NC=O)C(Cl)(Cl)Cl)CC1)C(Cl)(Cl)Cl (stereo not given)
AC50: inactive

Qu. # input compound: CCCC=NO ; wanted: its AC50
Ans. 43.5 µM (active)

Qu. Which value of AC50 has been reported for CCCOC(=O)c1ccccc1C(=O)OCCC in the records?
Ans. 49.8 µM (active)

Qu. Which value of AC50 has been reported for C=C(Cl)Cl in the records?
Ans. inactive

Qu. For the compound CC(C)CCCCCCCOP(=O)(Oc1ccccc1)Oc1ccccc1 , what AC50 is on record?
Ans. 27.5 µM (active)

Qu. Reported AC50 for COc1cc(OC)c(OC)cc1C=O : what is it?
Ans. 27.6 µM (active)

* * *

procedure.text: ATG_SREBP_CIS: Attagene CIS-FACTORIAL HepG2 Assay for human Sterol Regulatory Element Binding (SREBP) (AID 2282962)
stated.conditions: HepG2 Attagene cis-factorial SREBP reporter, mRNA; actives raise or lower the signal
Activity calls are given as the source filed them. Rule for the calls: active = hit-call score of the fitted dose curve at least 0.9, where 1 is the maximum; inactive = score below 0.9.

smiles.record: CCc1cccc(C)c1N(C(=O)CCl)[C@@H](C)COC
outcome: inactive

smiles.record: C[N+](C)=CCl
outcome: inactive

smiles.record: CN(C)N
outcome: inactive
